Target: serotonin 5-HT2C receptor (isoform type VSV, stably expressing CHO cell) (Homo sapiens, UniProt P28335, I156V/I160V/N158S)
Sequence (P28335 33-458 I156V/N158S/I160V limits assumed): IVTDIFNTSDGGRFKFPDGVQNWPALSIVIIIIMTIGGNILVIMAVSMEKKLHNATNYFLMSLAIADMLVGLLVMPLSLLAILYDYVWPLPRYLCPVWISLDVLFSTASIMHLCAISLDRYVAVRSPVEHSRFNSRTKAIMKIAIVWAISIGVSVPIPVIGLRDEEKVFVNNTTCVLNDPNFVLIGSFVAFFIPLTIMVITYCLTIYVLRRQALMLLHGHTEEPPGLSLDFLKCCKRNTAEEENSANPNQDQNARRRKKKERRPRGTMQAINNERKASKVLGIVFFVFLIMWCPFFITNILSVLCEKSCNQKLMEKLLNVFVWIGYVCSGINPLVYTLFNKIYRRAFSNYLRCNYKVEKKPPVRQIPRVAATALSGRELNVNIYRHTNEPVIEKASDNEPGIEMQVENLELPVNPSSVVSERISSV
Assay: cell-based
Conditions: CHO, read-out: ratio relative to maximum response by 5-HT (1 μM)
Counter-ions that a name gives are not always drawn.
Emax values for the compounds below.
State just the number; it will be interpreted in %.

These recorded examples may help you get a feel for the data.
CC1CNCc2ccc(-c3ccc(F)cc3)nc21 (stereo not shown) [Example 4, hydrochloride] | 101
CC1CNCc2ccc(N3CCOC[C@H]3C)nc21 (stereo in doubt) [Example 75, hydrochloride] | 103
FC(F)(F)c1ccc(-c2ccc3c(n2)CCNC3)cc1 [Example 29, dihydrochloride] | 97

Consider CC1CNCc2ccc(N3CCOCC3)nc21 (single isomer, unassigned) [Example 73, hydrochloride] . Its measured Emax is 101

Consider CC1CNCc2ccc(N3CCOCC3)nc21 (stereo not shown) [Example 5, dihydrochloride] . Its measured Emax is 101

Consider CC(Oc1ccc2c(n1)CCNC2)C1CC1 (stereo not shown) [Example 31, hydrochloride] . Its measured Emax is 88.4

Values were extracted from patent US20100266504A1.
